Recorded values, source PubChem BioAssay (NCI).

- System: KM12 colon
- assayOverview: NCI tumour cell line growth inhibition, 48 h
observable: TGI

Please review the entries below; each comes with its answer.
COc1ccc(-c2nc(Nc3cc(C)[nH]n3)c3ccccc3n2)cc1
29.1 µM
COc1ccc(-c2cc(Cc3cccs3)c(=O)[nH]n2)cc1
> 100 µM

# map each compound to its TGI
1. O=C1OC2(CC1C1(O)C3CC4CC(C3)CC1C4)C1CC3CC(C1)CC2C3 (stereo not drawn)
2. OCC1OC(n2cnc3c(N/N=C\c4ccccn4)ncnc32)C(O)C1O (stereo not drawn)
3. CCCCn1c(N)c(-c2nc3ccccc3o2)sc1=S
4. NC(CSC1c2ccccc2-c2ccccc21)C(=O)O (stereo not drawn)
5. CN(C)c1ccc(NN=C2SC(=Nc3ccccc3)C(=Nc3ccccc3)S2)cc1

Resp:
["> 100 µM", "> 100 µM", "> 100 µM", "> 100 µM", "> 100 µM"]

---

Please provide measured TGI for the entries that follow.
- System: OVCAR-3 ovarian
- assayOverview: NCI tumour cell line growth inhibition, 48 h

O=C1OCC2=C1C(c1ccc(Cl)c(Cl)c1)c1cc3c(cc1N2CCO)OCCO3 (stereo not given)
0.351 µM
O=C(NNCC(O)COc1ccccc1)c1ccccc1 (stereo not given)
> 100 µM

# map each molecule to its TGI
1. Oc1ccc(-c2cc(-c3cc(-c4ccc(O)cc4)no3)on2)cc1
2. NNC(=O)CS(=O)(=O)Nc1ncccn1
3. C=CCN1C(=O)/C(=C/c2cccs2)N=C1SC/C=C/C
4. Nc1ccn(C2C=C(CO)C(O)C2O)c(=O)c1 (stereo not given)

Resp:
1: > 100 µM; 2: > 100 µM; 3: > 100 µM; 4: > 625 µM

# map each molecule to its TGI
1. COc1ccc(-c2nc(Nc3cc(C)[nH]n3)c3ccccc3n2)cc1
2. CC/C=C\C/C=C\C/C=C\CCCCCCCC(=O)OCC(O)CO (stereo not given)
3. CCCCCCCCCCCCCCCCCC[n+]1ccc2c(C)c3c(c(C)c2c1)c1cc(O)ccc1n3CC
4. COc1cc(C(=O)C/C(CCC(=O)Nc2ccccc2[N+](=O)[O-])=N\NC(N)=O)ccc1O
5. COc1ccc(C(=O)/C=C/c2ccc(O)c(O)c2)c(OC)c1
6. CCc1nn(CN2CCOCC2)c(=S)n1/N=C/c1ccc(-c2ccc(Cl)cc2)o1
7. CC1=C2[C@@H](CC1)[C@]1(C)O[C@@](c3ccccc3)(C[C@H]1OC(=O)CO)[C@H]2OC(=O)/C=C/c1ccccc1
8. CCCCCCCCCCCCCCCCCC1=NCCN1CCOC1=C(Cl)C(=O)c2ccccc2C1=O

Resp:
1: 38.8 µM; 2: > 74.5 µM; 3: 4.68 µM; 4: > 100 µM; 5: 2.66 µM; 6: > 100 µM; 7: 30.6 µM; 8: 3.34 µM

Req: Would you kindly share the measured TGI for NC(=O)c1csc(C2OC(CO)C(O)C2O)n1 (stereo not given) ?
Resp: 7030 µM

---

Please provide measured GI50 for the entries that follow.
- Tested on: SK-MEL-5 melanoma
- assayOverview: NCI tumour cell line growth inhibition, 48 h

NC(=O)c1csc(C2OC(CO)C(O)C2O)n1 (centres undefined)
> 31.6 µM
O=C1c2cccnc2C(=O)c2c1c(C(=O)NCCCN1CCCCC1)c1ccccn21
0.36 µM
COc1ccc(-c2[nH]c3ccccc3c2-c2ccc(OC)cc2)cc1
3.65 µM

Pending molecule:
Req: Would you kindly share the measured GI50 for C[C@@H]1CN(Cc2ccc(F)cc2)[C@@H](C)CN1C(=O)c1cc2c(C(=O)C(=O)N(C)C)cn(C)c2cc1Cl ?
Resp: 13.1 µM
